Entries and their solubility (mole fraction) values follow.
Conditions: in n-nonanol, 313.2 K
# output: bare number, no unit

>>> print(df.to_string())
                                   molecule  recorded_number
0  C[C@@H]1CC[C@@]2(OC1)O[C@H]1C[C@H]3[C@@H]4CC=C5C[C@@H](O)CC[C@]5(C)[C@H]4CC[C@]3(C)[C@H]1[C@@H]2C           0.0123

From here, focus on the item given below.
input: Fill in: solubility (mole fraction) of C[C@]12CC[C@@H]3c4ccc(O)cc4CC[C@H]3[C@@H]1C[C@@H](O)[C@@H]2O is ___
output: 0.0131
